Test: NCI Yeast Anticancer Drug Screen. Data for the rad50 strain (AID 155);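 also: 0% = growth of vehicle-only cultures of the same strain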
Conditions: S. cerevisiae rad50 strain growth inhibition; at 5.0 µM (retest, dose inferred, filed as 0.5); active compounds read high
About 79,000 compounds went through this panel and 15% of them were active in at least one assay; those are over-represented in the sample as a whole.
For each entry below, report its growth inhibition value.
Supply the numeric figure in %, leaving out any unit text.

Quick check: growth inhibition of O=[N+]([O-])c1ccc(SC2CCCCCCC2Cl)c([N+](=O)[O-])c1 (stereo not given) ?
6

Quick check: growth inhibition of CN(C)CC1CC2C3CC=C4CC(O)CCC4(C)C3CCC2(C)C1=O (stereo not given) ?
-9

Quick check: growth inhibition of CN(C)CCC(C(=O)C(Br)Br)(c1ccccc1)c1ccccc1 ?
16

Quick check: growth inhibition of O=[N+]([O-])c1ccc([Se]CCBr)c([N+](=O)[O-])c1 ?
5

Quick check: growth inhibition of Cc1ccc(NP(=O)(Oc2ccccc2)N(CCCl)CCCl)cc1 (stereo not given) ?
11

Quick check: growth inhibition of Oc1ccc(Br)cc1C1N(Cc2ccc(N(CCCl)CCCl)cc2Cl)CCCN1Cc1ccc(N(CCCl)CCCl)cc1Cl ?
69

Quick check: growth inhibition of O=C1c2ccccc2-c2c3c(cc4ccnc1c24)OCO3 ?
96

Quick check: growth inhibition of CCS(=O)(=O)[O][Sn]([CH2]C)([CH2]C)[O]S(=O)(=O)CC ?
21

Quick check: growth inhibition of CC[C@@]1(O)C(=O)OCc2c1cc1n(c2=O)Cc2cc3cc4c(cc3nc2-1)OCO4 ?
95

Quick check: growth inhibition of C=CC[N+]12CN3CN(CN(C3)C1)C2 ?
38

---

Assay: NCI Yeast Anticancer Drug Screen. Data for the mlh1 rad18 strain (AID 175)
Conditions: S. cerevisiae mlh1 rad18 strain growth inhibition; at 5.0 µM (retest, dose inferred, filed as 0.5)
Procedure: Growth inhibition of yeast strains with defined genetic alterations is measured as a screen for potential anti-cancer activity. Selected strains with alterations in DNA damage repair or cell cycle control were exposed to compounds and growth inhibition was measured relative to vehicle treated controls. The strain used in this assay is mlh1 rad18
The panel holds about 79,000 compounds, 15% with a hit somewhere; the sample as a whole holds those more often. Active and inactive are the calls of the source. Cut-off read from the data, not from the text of the source: active = growth inhibition above about 70%; inactive = the rest.
Thanks in advance; please answer with one of these: T for active, F for inactive

What call does the record list for CC[CH2][Sn]([Br])([Br])[CH2]CC ?
F

What call does the record list for COc1ccc(C2N(Cc3ccc(N(CCCl)CCCl)cc3C)CCCN2Cc2ccc(N(CCCl)CCCl)cc2C)cc1 ?
F

What call does the record list for COc1ccc2c3c(c4cc(OC)c(OC)cc4c2c1)C[C@H]1CCCCN1C3 ?
T

What call does the record list for [Cl][Sn]([Cl])([c]1ccccc1)[c]1ccccc1.c1ccncc1.c1ccncc1 ?
T

What call does the record list for CN(C)c1ccc(N=Cc2c([O-])ccc3ccccc23)cc1.[C-]#[O+].[C-]#[O+].[Ir] ?
F

What call does the record list for CCC[CH2][Sn]1([CH2]CCC)[O]N=Cc2ccccc2[O]1 ?
T

What call does the record list for COc1cc2c3c(c1)-c1c(ccc(OC)c1OC)CC3N(CCCl)CC2 (stereo not given) ?
F

What call does the record list for [C-]#[O+].[C-]#[O+].[C-]#[O+].[Cl-].[Ru+2].c1ccc([PH+](CC[PH+](c2ccccc2)c2ccccc2)CC[PH+](c2ccccc2)c2ccccc2)cc1 ?
F

What call does the record list for CCN(CCCl)c1cc(CN(C)C)cc(NC(=O)c2ccc(C(=O)Nc3cccc(N(CCCl)NN)c3)cc2)c1 ?
F

What call does the record list for CC(=O)OCC1OC(OC(C)C)[CH]([Hg][S]Cc2ccccc2)C(OC(C)=O)C1OC(C)=O (stereo not given) ?
T

What call does the record list for O=c1c(O)c(-c2ccccc2)oc2ccccc12.[Pb] ?
F

What call does the record list for CCCCCCCCCCCCC(=O)[O][Hg][c]1ccccc1 ?
T

What call does the record list for CC(C)(C)c1cc([N+](=O)[O-])cc([N+](=O)[O-])c1O ?
F

What call does the record list for CC(C)(c1ccccc1)c1ccc(O)cc1 ?
F

What call does the record list for [C-]#[O+].[C-]#[O+].[C-]#[O+].[CH3][Sn]([c]1ccccc1)[c]1ccccc1.[Co].c1ccc([PH+](c2ccccc2)c2ccccc2)cc1 ?
T

What call does the record list for O=c1oc2ccccc2c(O)c1C(c1ccc(-c2ccccc2)cc1)c1c(O)c2ccccc2oc1=O ?
F

What call does the record list for COc1cc([C@@H]2c3cc4c(cc3C[C@@H]3COC(=O)C32)OCO4)cc(OC)c1O (stereo not given in full) ?
F

What call does the record list for CC(O)C(=O)O.CC(O)C(=O)O.[Ni] (stereo not given) ?
F

What call does the record list for CCCCCCCC1(c2ccc(N)cc2)CCC(=O)NC1=O (stereo not given) ?
F

What call does the record list for CCOC(=O)N(C(=O)c1ccc([As]=O)cc1)C(=O)c1ccc([As]=O)cc1 (stereo not given) ?
F

---

Test: NCI Yeast Anticancer Drug Screen. Data for the rad14 strain (AID 159);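 also: 0% = growth of vehicle-treated control cultures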
Conditions: S. cerevisiae rad14 strain growth inhibition; at 33.0 µM; active compounds read high
This is part of a sample that, as a whole, favours compounds with a hit. Of some 79,000 tested, about 15% had one in any assay.
For each entry below, report its growth inhibition value.
Supply the numeric figure in %, leaving out any unit text.

Quick check: growth inhibition of CC1CCC2(NC1)OC1CC3C4CCC5CC(OC6OC(CO)C(OC7OC(CO)C(O)C(OC8OCC(O)C(O)C8O)C7OC7OC(CO)C(O)C(O)C7O)C(O)C6O)CCC5(C)C4CCC3(C)C1C2C (centres undefined) ?
-18

Quick check: growth inhibition of CCNC(=O)OCC1C2=C(C(=O)C(C)=C(N)C2=O)N2CC3C(N3C)C12OC (centres undefined) ?
45

Quick check: growth inhibition of CCC1(O)C(=O)OCc2c1cc1n(c2=O)Cc2c-1nc1ccccc1c2OC (centres undefined) ?
20

Quick check: growth inhibition of BrCC[N+]12CC[N+](CCBr)(CC1)C2 ?
93

---

Test: NCI Yeast Anticancer Drug Screen. Data for the mlh1 rad18 strain (AID 175)
Details: S. cerevisiae mlh1 rad18 strain growth inhibition; at 50.0 µM (retest, dose inferred, filed as 5.0)
This is part of a sample that, as a whole, favours compounds with a hit. Of some 79,000 tested, about 15% had one in any assay. Activity calls are given as the source filed them. Cut-off read from the data, not from the text of the source: active = growth inhibition above about 70%; inactive = the rest.
Thanks in advance; please answer with one of these: 1 (yes) (active), 0 (no) (inactive)

What call does the record list for N=P(c1ccccc1)(c1ccccc1)c1ccccc1 (tested in a mixture with another compound) ?
0 (no)

What call does the record list for COc1ccc(CNCCc2ccc(O)c(OC)c2)cc1O ?
0 (no)

What call does the record list for NCCc1ccc(OCc2ccccc2)c(OCc2ccccc2)c1 ?
1 (yes)

What call does the record list for COc1ccc(/C=C/[N+](=O)[O-])c(OC)c1OC ?
0 (no)

What call does the record list for [Pt].c1ccc(P(CCP(c2ccccc2)c2ccccc2)CCP(c2ccccc2)c2ccccc2)cc1 ?
1 (yes)

What call does the record list for C=CO/C(C)=C(\[Se]c1ccccc1)C(C)=O ?
1 (yes)

What call does the record list for COc1ccc(NP(=S)(Nc2ccc(OC)cc2)c2ccccc2)cc1 ?
0 (no)

What call does the record list for O=C(O)CCCC1CCCCC1 ?
0 (no)

What call does the record list for S=c1[nH]c2ccccc2s1 ?
0 (no)

What call does the record list for c1ccc(C(C(=Nc2ccc(Cc3ccc(N=C(C(c4ccccc4)c4ccccc4)N4CC4)cc3)cc2)N2CC2)c2ccccc2)cc1 ?
1 (yes)

What call does the record list for COc1cc2ccccc2c2cc([N+](=O)[O-])oc12 ?
1 (yes)

What call does the record list for c1ccc2c[n+](CCCCCCCCCC[n+]3ccc4ccccc4c3)ccc2c1 ?
1 (yes)

What call does the record list for ClC1=C(Cl)C2(Cl)C3CC4OC4C=CC3C1(Cl)C2(Cl)Cl (stereo not drawn) ?
1 (yes)

What call does the record list for COC(=O)C1=C(C(=O)OC)SC2(S1)C(C(=O)OC)=C(C(=O)OC)Sc1c2ssc1=O ?
1 (yes)

What call does the record list for CNC(=O)ON(C(C)=O)C(=O)NC ?
0 (no)

What call does the record list for O=C1c2ccccc2C(=O)C(Cl)C1Cl (stereo not drawn) ?
1 (yes)

What call does the record list for O=P(CP(=O)(c1ccccc1)c1ccccc1)(c1ccccc1)c1ccccc1.[CH3][Sn]([CH3])([Cl])[Cl] ?
0 (no)

What call does the record list for CC(=O)OC1C2(CC3N4C(=O)C5(CO)SSC4(CC31O)C(=O)N5C)OC(C)C(C)(C)C2=O (stereo not drawn) ?
1 (yes)

What call does the record list for COC1(OC)C(Cl)=C(Cl)C(Cl)=C1Cl ?
1 (yes)

What call does the record list for O=C1C=CC(=O)C1(Br)Br ?
1 (yes)

What call does the record list for CC(=O)C1CCC2C3CCC4=CC(=[N+]5CCCCC5)CCC4(C)C3CCC12C (stereo not drawn) ?
1 (yes)

What call does the record list for O=P(Nc1cccc(Cl)c1)(Oc1ccccc1)N(CCCl)CCCl (stereo not drawn) ?
0 (no)

What call does the record list for O=C([O][Hg][CH2]C1CC(O)CC([CH2][Hg][O]C(=O)c2ccccc2)O1)c1ccccc1 (stereo not drawn) ?
1 (yes)

# credit: PubChem BioAssay (NCI)
